pKi: −log10 of the molar value.
Note to self: these molecules have pKi reported for D(1A) dopamine receptor (Homo sapiens, UniProt P21728) in various publications.

# annotated cases, reported pKi shown
- MOLECULE: "COc1ccccc1N1CCN(CCN(C(=O)C2CCCCC2)c2ccccn2)CC1"
  pKi: "< 5.00"
- MOLECULE: "OCCC1CCN(CCC=C2c3ccc(F)cc3Sc3ccc(C(F)(F)F)cc32)CC1"
  pKi: 9.19
- MOLECULE: "CCCCN1CCC(COC(=O)c2cc(Cl)c(N)c3c2OCCO3)CC1"
  pKi: 6.00
- MOLECULE: "CC(C)=CCC[C@]1(C)[C@@H](CC=C(C)C)C[C@]2(CC=C(C)C)C(=O)C(CC=C(C)C)C(=O)[C@]1(C(=O)C(C)C)C2=O (stereo partly specified)"
  pKi: 6.22
- MOLECULE: "CC(C)C(=O)N(c1ccccc1)C1CC(C)N(C(=O)c2ccccc2)c2ccccc21 (stereo unspecified)"
  pKi: "< 6.00"

Find the recorded pKi belonging to Cc1cc(NC(=O)Nc2ccc3c(ccn3C)c2)sn1 and report it.
< 5.00

Please look up its pKi: COc1cc2c(cc1OC)CC1c3cc(OC)c(OC)cc3CCN1CC2 (stereo unspecified)
7.47

Look up pKi: N[C@@H](CS)C(=O)O
< 5.00

So what's the measured pKi for this one? CC1CC(N(C(=O)C2CC2)c2ccccc2)c2ccccc2N1C(=O)c1ccccc1 (stereo unspecified)
< 6.00

Given the molecule N[C@@H](CCS)C(=O)O (racemic) , what is its reported pKi?
< 5.00

Give the measured pKi of N[C@H](CCS(=O)(=O)O)C(=O)O .
< 5.00

----------
pKi: −log10 of the molar value.
Reported pKi on UniProtKB P21728 for assorted molecules, compiled from publications.

Look over these answered cases.
- MOLECULE: "COc1cc2c(cc1OC)C1Cc3ccc(OC)c(OC)c3CCN1CC2 (stereo not given)"
  RESULT: 7.24
- MOLECULE: "CN(C)CCON=C(C=Cc1ccc(O)cc1)c1ccccc1F"
  RESULT: "< 5.00"
- MOLECULE: "COc1cc2c(cc1O)C1Cc3cc(OC)c(OC)cc3CCN1CC2 (stereo not given)"
  RESULT: 7.16

Now take the following molecule into account.
Write down the reported pKi of N[C@H](CCS(=O)O)C(=O)O , test system: UniProtKB P21728.
< 5.00

----------
Ok so here's the combined literature set: Ki for D(1A) dopamine receptor (Homo sapiens).

- COMPOUND: "CCc1cc(Cl)c(OC)c(C(=O)NC[C@@H]2CCCN2CC)c1O"
  VALUE KIND: "Ki"
  RESULT: "> 10 µM"
- COMPOUND: "COc1ccc2c(c1OC)CCN1CCc3cc4c(cc3C1C2)OCO4 (stereo unspecified)"
  VALUE KIND: "Ki"
  RESULT: "0.0603 µM"
- COMPOUND: "NC(CS(=O)O)C(=O)O (stereo unspecified)"
  VALUE KIND: "Ki"
  RESULT: "> 10 µM"
- COMPOUND: "CCC(=O)N1c2ccccc2C(N(C(C)=O)c2ccccc2)CC1C (stereo unspecified)"
  VALUE KIND: "Ki"
  RESULT: "> 1 µM"
- COMPOUND: "CCN1CCCC1CNC(=O)c1cc(S(N)(=O)=O)ccc1OC (stereo unspecified)"
  VALUE KIND: "Ki"
  RESULT: "> 10 µM"

Note: attention shifts to another entry.
Entry O=c1cc(O)cc2oc(-c3ccc(O)c(O)c3)c(OC3OC(CO)C(O)C(O)C3O)c(O)c1-2 (stereo unspecified) , system D(1A) dopamine receptor (Homo sapiens): what Ki was measured?
> 10 µM
